Values compiled from patent US20070244048A1.

Collected EC50 (FLIPR) values appear next to each entry.
# target: T1, mouse NMUR1-CTG (mouse, UniProt O55040 1-428)
# T1 sequence (looked up): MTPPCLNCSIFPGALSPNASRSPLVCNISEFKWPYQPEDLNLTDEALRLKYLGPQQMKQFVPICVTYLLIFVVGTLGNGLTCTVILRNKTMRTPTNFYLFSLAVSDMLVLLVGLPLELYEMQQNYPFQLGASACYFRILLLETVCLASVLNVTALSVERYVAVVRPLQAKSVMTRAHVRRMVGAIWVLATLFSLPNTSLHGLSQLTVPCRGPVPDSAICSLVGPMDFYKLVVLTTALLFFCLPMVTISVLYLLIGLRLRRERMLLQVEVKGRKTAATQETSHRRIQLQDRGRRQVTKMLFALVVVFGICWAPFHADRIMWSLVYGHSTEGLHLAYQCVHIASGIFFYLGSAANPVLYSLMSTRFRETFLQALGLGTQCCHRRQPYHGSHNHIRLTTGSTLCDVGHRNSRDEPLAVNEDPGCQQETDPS
# method.notes: cell-based or functional assay
Non-standard residues stand in square brackets, D forms with d. *: point of attachment. (PEG)2 40 kDa = branched PEG of 40 kDa linked via the Cys side-chain thiol (code C2 = Cys(PEG)2 40 kDa); Succinimide(1-Et,3-yl) = CCN1C(=O)CC(*)C1=O; Palmitoyl = CCCCCCCCCCCCCCCC(=O)*

**Query** Entry Ac-C(Succinimide(1-Et,3-yl))GYFLFRPRN-NH2 (SMILES CCN1C(=O)CC(SC[C@H](NC(C)=O)C(=O)NCC(=O)N[C@@H](Cc2ccc(O)cc2)C(=O)N[C@@H](Cc2ccccc2)C(=O)N[C@@H](CC(C)C)C(=O)N[C@@H](Cc2ccccc2)C(=O)N[C@@H](CCCNC(=N)N)C(=O)N2CCC[C@H]2C(=O)N[C@@H](CCCNC(=N)N)C(=O)N[C@@H](CC(N)=O)C(N)=O)C1=O) [NMU6] : reported EC50 (FLIPR) = ?
**Result** 2 nM

**Query** # lookup: EC50 (FLIPR) of Ac-C((PEG)2 40 kDa)FRVDEEFQSPFASQSRGYF[dA]WRPRN-NH2 [NMU14]
**Result** > 1000 nM

**Query** # input binder: Ac-C(Succinimide(1-Et,3-yl))C(Succinimide(1-Et,3-yl))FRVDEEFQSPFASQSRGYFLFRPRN-NH2 [NMU22] ; wanted: its EC50 (FLIPR)
**Result** 43.5 nM

API: the following record is the query input.
**Query** # lookup: EC50 (FLIPR) of Palmitoyl-C((PEG)2 40 kDa)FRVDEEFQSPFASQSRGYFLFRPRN-NH2 [NMU25]
**Result** 60.3 nM
